assay: AUC(0 to infinity) in Sprague-Dawley rat at 2 mg/kg, iv measured upto 24 hrs by LC-MS/MS analysis; format: ADME, organism-based; conditions: in vivo
readout_label: AUC(0-inf) (ng·h/mL)

substance_smiles	test_result
NCC(=O)Nc1cc(Cl)cc(Cl)c1OCc1ccc(C(=O)Nc2ccccc2N)cc1	1280

* * *

Listed below: Activity values for each entry.
test system: SH-SY5Y; assay: Neuroprotective activity against glutamate induced human SH-SY5Y cells at 1 uM preincubated for 30 mins followed by glutamate addition and measured after 24 hrs by LDH based assay; type: functional; details: time 24.5 hrs

substance_smiles	units_symbol	Activity
CN(C)CCNC(=O)c1ccc(COc2c(N)cc(Cl)cc2Cl)cc1	%	15.63
C[C@@H](N)CNC(=O)c1ccc(COc2c(N)cc(Cl)cc2Cl)cc1	%	41.38
Nc1cc(Cl)cc(Cl)c1OCc1ccc(C(=O)N[C@@H]2CCCC[C@H]2N)cc1	%	41.87
Nc1cc(Cl)cc(Cl)c1OCc1ccc(S(N)(=O)=O)cc1	%	15.52
COCCNC(=O)c1ccc(COc2c(N)cc(Cl)cc2Cl)cc1	%	40.46
CN(CCN)C(=O)c1ccc(COc2c(N)cc(Cl)cc2Cl)cc1	%	32.51
Nc1ccccc1NC(=O)c1ccc(COc2c(N)cc(Cl)cc2Cl)cc1	%	41.87
NCCCNC(=O)c1ccc(COc2c(N)cc(Cl)cc2Cl)cc1	%	39.65
NNC(=O)c1ccc(COc2c(N)cc(Cl)cc2Cl)cc1	%	6.15
Nc1cc(Cl)cc(Cl)c1OCc1ccc(C(=O)N[C@H]2CCCC[C@@H]2N)cc1	%	39.66
CS(=O)(=O)Nc1ccc(COc2c(N)cc(Cl)cc2Cl)cc1	%	45.26
Nc1cc(Cl)cc(Cl)c1OCc1ccc(C(=O)NCC(=O)O)cc1	%	47.04
Nc1cc(Cl)cc(Cl)c1OCc1ccc(C(=O)NCCS)cc1	%	35.12
Nc1cc(Cl)cc(Cl)c1OCc1ccc(C(=O)NCCO)cc1	%	26.31
NCCNC(=O)c1ccc(COc2c(N)cc(Cl)cc2Cl)cc1	%	41.14
Nc1cc(Cl)cc(Cl)c1OCc1ccc(NS(=O)(=O)c2ccccc2)cc1	%	38.63
Nc1cc(Cl)cc(Cl)c1OCc1ccc(NS(=O)(=O)C(F)(F)F)cc1	%	36.13

* * *

test: Mean residence time in Sprague-Dawley rat at 2 mg/kg, iv measured upto 24 hrs by LC-MS/MS analysis; assay type: ADME, organism-based; settings: in vivo

substance_smiles	MRT, h
NCC(=O)Nc1cc(Cl)cc(Cl)c1OCc1ccc(C(=O)Nc2ccccc2N)cc1	1.46

* * *

tested on: SH-SY5Y; assay: Cytotoxicity against human SH-SY5Y cells at 25 uM incubated for 72 hrs by CCK8 assay; format: toxicity, cell-based
# strict inequality: Activity < 2% yields Fulfilled, everything else yields Not fulfilled

substance_smiles	label_class
CN(C)CCNC(=O)c1ccc(COc2c(N)cc(Cl)cc2Cl)cc1	Fulfilled
C[C@@H](N)CNC(=O)c1ccc(COc2c(N)cc(Cl)cc2Cl)cc1	Not fulfilled
Nc1cc(Cl)cc(Cl)c1OCc1ccc(C(=O)NCCO)cc1	Fulfilled
CN(CCN)C(=O)c1ccc(COc2c(N)cc(Cl)cc2Cl)cc1	Not fulfilled
CS(=O)(=O)Nc1ccc(COc2c(N)cc(Cl)cc2Cl)cc1	Not fulfilled
Nc1cc(Cl)cc(Cl)c1OCc1ccc(C(=O)NCCS)cc1	Not fulfilled
NNC(=O)c1ccc(COc2c(N)cc(Cl)cc2Cl)cc1	Fulfilled
NCCCNC(=O)c1ccc(COc2c(N)cc(Cl)cc2Cl)cc1	Fulfilled
Nc1cc(Cl)cc(Cl)c1OCc1ccc(C(=O)NCC(=O)O)cc1	Not fulfilled
NCCNC(=O)c1ccc(COc2c(N)cc(Cl)cc2Cl)cc1	Fulfilled
Nc1cc(Cl)cc(Cl)c1OCc1ccc(C(=O)N[C@H]2CCCC[C@@H]2N)cc1	Not fulfilled
Nc1cc(Cl)cc(Cl)c1OCc1ccc(NS(=O)(=O)C(F)(F)F)cc1	Not fulfilled
Nc1cc(Cl)cc(Cl)c1OCc1ccc(S(N)(=O)=O)cc1	Not fulfilled
Nc1cc(Cl)cc(Cl)c1OCc1ccc(C(=O)N[C@@H]2CCCC[C@H]2N)cc1	Not fulfilled
COCCNC(=O)c1ccc(COc2c(N)cc(Cl)cc2Cl)cc1	Fulfilled
Nc1ccccc1NC(=O)c1ccc(COc2c(N)cc(Cl)cc2Cl)cc1	Fulfilled
